Every entry's value here was drawn from PubChem BioAssay AID2060602.

test system: 648629-189-R-J1-PDC complex spheroids viability; assay: Anticancer human tumor 648629-189-R-J1-PDC patient-derived bladder carcinoma cell line growth inhibition [CLK]; conditions: curve of first compound; second compound 0.1 µM
IC50 overview
// note: answer is a bare numeric in µM

1) C=C(F)C(=O)N1CCN(c2nc(OCC3CCCN3C)nc3c2CCN(c2cccc4cccc(Cl)c24)C3)CC1CC#N (stereo not given) + CNC(=O)c1ccc(Nc2nc(OC3CCCC3)c3c(-c4ccc5nc(C)oc5c4)c[nH]c3n2)c(OC)c1    3.81

## Input // map Nc1ccn(C2OC(CO)C(O)C2(F)F)c(=O)n1 (stereo not given) + CNC(=O)c1ccc(Nc2nc(OC3CCCC3)c3c(-c4ccc5nc(C)oc5c4)c[nH]c3n2)c(OC)c1 to recorded IC50 (system: 648629-189-R-J1-PDC complex spheroids viability)
## Output 0.0421

====

system: 648629-189-R-J1-PDC complex spheroids viability; test: Anticancer human tumor 648629-189-R-J1-PDC cell line growth inhibition [CLK]; details: second compound 10 µM; first compound 0.0316 µM; active means viability on the fitted dose curve at most 10% of control; inactive means the rest
Your response should consist of one outcome taken from true (1) for active, false (0) for inactive

1. COc1ccc([C@@H](O)c2cc(-c3ncnc4cc(N5CCOCC5)ccc34)c(F)cc2Cl)nn1 + CNC(=O)c1ccc(Nc2nc(OC3CCCC3)c3c(-c4ccc5nc(C)oc5c4)c[nH]c3n2)c(OC)c1    false (0)
2. CCc1c2c(nc3ccc(O)cc13)-c1cc3c(c(=O)n1C2)COC(=O)[C@]3(O)CC + CN1CCN(c2cc(C(=O)Nc3cc4cc(-c5cnn(C)c5)ccc4cn3)ccn2)CC1    true (1)
3. CC(Nc1ccc2c(c1)OCCn1cc(N3C(=O)OCC3C(F)F)nc1-2)C(N)=O (centres undefined) + CNC(=O)c1ccc(Nc2nc(OC3CCCC3)c3c(-c4ccc5nc(C)oc5c4)c[nH]c3n2)c(OC)c1    false (0)

Next up:
## Input Short answer needed: outcome of this test for C=CC(=O)N1CCN(c2nc(=O)n(-c3c(C)ccnc3C(C)C)c3nc(-c4c(O)cccc4F)c(F)cc23)C(C)C1 (centres undefined) + CN1CCN(c2cc(C(=O)Nc3cc4cc(-c5cnn(C)c5)ccc4cn3)ccn2)CC1 ?
## Output true (1)

====

system: 648629-189-R-J1-PDC complex spheroids viability; experiment: Anticancer human tumor 648629-189-R-J1-PDC cell line growth inhibition [CLK]; settings: second compound 0.0316 µM; first compound 0.01 µM; stronger effect = lower value;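 as to viability, T/C: drug exposure lasted seven days before viability readout; 100% = DMSO vehicle control wells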
viability, T/C overview
// note: answer is a bare numeric in %

## Input Recorded viability, T/C of CCc1c2c(nc3ccc(O)cc13)-c1cc3c(c(=O)n1C2)COC(=O)[C@]3(O)CC + CNC(=O)c1ccc(Nc2nc(OC3CCCC3)c3c(-c4ccc5nc(C)oc5c4)c[nH]c3n2)c(OC)c1 , please.
## Output 11.5

## Input Moving on to the next molecule: CCN1CCN(Cc2ccc(Nc3ncc(F)c(-c4cc(F)c5nc(C)n(C(C)C)c5c4)n3)nc2)CC1 + CNC(=O)c1ccc(Nc2nc(OC3CCCC3)c3c(-c4ccc5nc(C)oc5c4)c[nH]c3n2)c(OC)c1
## Output 103

## Input Moving on to the next molecule: Cn1ncnc1[C@H]1c2n[nH]c(=O)c3cc(F)cc(c23)N[C@@H]1c1ccc(F)cc1 + CNC(=O)c1ccc(Nc2nc(OC3CCCC3)c3c(-c4ccc5nc(C)oc5c4)c[nH]c3n2)c(OC)c1
## Output 102
